- Test Protocol: yeast display, Sf9 membrane polyspecificity reagent, FACS + sequencing; frameworks hold sequencing errors
Measure Name: polyreactivity (PSR sort gate)

Use the examples below as a reference point.
>  <Sequence Input>
QVQLQESGGGLVQAGGSLRLSCAASGSISHYIFMGWYRQAPGKEREFVAGIGYGGTTNYADSVKGRFTISRDNAKNTVYLQMNSLKPEDTAMYYCAAREATEFYLYYWGQGTQVTVRS

>  <polyreactivity (PSR sort gate)>
low polyreactivity

$$$$
>  <Sequence Input>
QVQLVESGGGLVQAGGSLRLSCAASGFILRYNAMGWYRQAPGKEREFVAAITRGATTTYADSVKGRFTISRDNAKNTVYLQMNRLKPEDTAVYYCAKRYHGYISQGQLWERIYDYWGQGTQVTVSS

>  <polyreactivity (PSR sort gate)>
low polyreactivity

$$$$
>  <Sequence Input>
QVQLVESGGGLFQAGGSLSLSCAASGRTLWLYTKRWYTQAPGKEWELVARIRSGGSTYYADSVKGRFTISRDNAKNTVYLQMNSLKPEDTAVYYCAVGSRYYGRGYYYWGQGTQVTVSW

>  <polyreactivity (PSR sort gate)>
high polyreactivity

$$$$
>  <Sequence Input>
QVQLVESGGGLVQAGGSLRLSCAASGRIFWYNAMGWYRQAPAKERELVAGITRSGGRTYYADSVKGRFTISRDNAKNTVYLQMNSLKPEDTAVYYCAAAPYARRDYEYWGQGTQVTVSS

>  <polyreactivity (PSR sort gate)>
high polyreactivity

$$$$
>  <Sequence Input>
QVQLVESGGGLVQAGGSLRLRCAASGSTFVYNGMGWYRQAPGKERELVATISSTGSTNYADSVKGRFTISRDNAKNTVFLQMNSLKPEDTAVYYCATEYITYLAYDYWGQGTQVTVSS

>  <polyreactivity (PSR sort gate)>
low polyreactivity

$$$$

I have this sequence here, QVQLVESGGGLVQAGGSLRLSCAASGRIFRPYAMGWYRQAPGKERELVAGITSSGGSTYYADSVKGRYTISRDNAKNTVYLQMNSLKPEDTAVYYCAAVHGLFRPLHYYWGQGTQVTVSS , and I need its recorded polyreactivity (PSR sort gate).
low polyreactivity

* * *

- Test Protocol: yeast display, Sf9 membrane polyspecificity reagent, FACS + sequencing; frameworks hold sequencing errors
Measure Name: polyreactivity (PSR sort gate)

Answered cases to consult:
>  <Sequence Input>
QDQLVESGGGLVQAGGSLRLSCAASGLILHKYAMGWYRQAPGKERELVASINSGANTNYADSVKGRFTISRDNAKNTLYLHLNSLKPEDTAVYYCAADWQQLSYVWRSQRRYNYWGQGTQVTVSS

>  <polyreactivity (PSR sort gate)>
low polyreactivity

$$$$
>  <Sequence Input>
QVQLLESGGGLVQAGGSLRLSCAASGSTFYINTMGWSRQAPGKERELVAAISWTGGRTYYADSVKGRFTISRDNAKNTVYLQMHSLKPEDTAVYYCAAYYNIPDRRRVGYDYWGQGTQVTVSS

>  <polyreactivity (PSR sort gate)>
high polyreactivity

$$$$
>  <Sequence Input>
QVQLVESGGGLVQAGGSLRLSCAASGFIFTVNAMGWYRQAPGKERELVAAITQSGGNTSYADSVKGRFTISRDNAKNTVYLQMNSLKPEDTAVYYCNASSDTSRYGVSTYYYWGQGTQVTVSS

>  <polyreactivity (PSR sort gate)>
low polyreactivity

$$$$
>  <Sequence Input>
QVQLVESGGGLVQAGGSLRLSCAASGSTFNYNAMGWYRPAPRKERELVAAITWNSGSTYYADSVKGRFTISRDNAKNTVYLQMNSLKQEDTAVYSCAADFTIPYWDAKFDYWGQGTQVTVSS

>  <polyreactivity (PSR sort gate)>
low polyreactivity

$$$$

Find the recorded polyreactivity (PSR sort gate) belonging to QVQLVESGGGLVQAGGSLRLSCAASGITFTGYGMGWYRQAPGKERELVAAIRLRTGSTYYADSVKGRFTISRDNAKNTVYLQMYSLKPEDTAVYYCAAAFPRYRSRAIRVDYWGQGTQVTVSS and report it.
high polyreactivity

* * *

- Test Protocol: yeast display, Sf9 membrane polyspecificity reagent, FACS + sequencing; frameworks hold sequencing errors
Measure Name: polyreactivity (PSR sort gate)

// worked examples, polyreactivity (PSR sort gate) included
>  <Sequence Input>
QVQLVESGGGLVQAGGSLRLSCAASGFTFFDNAMGWYRQAPGKERELVAAITWSDGSTYYADSVKGRFTISRDNAKNTVYLQMNSLKPEDTAVYYCAVGFISYSYSNYYDVWYEYYYWGQGTQVTVSS

>  <Assay Result>
low polyreactivity

$$$$
>  <Sequence Input>
QVQLVESGGGLDQAGGSLRLSCAASGSIFGYYAMGWYRQAPGKERELVAAISRSGGSTYYADSVKGRFTISRDNAKNTVYLQMNSLKPEDTAVYYCAARPPYRVGIVPLGRREYYWGQGTQVTVSS

>  <Assay Result>
high polyreactivity

$$$$
>  <Sequence Input>
QVQLVESGGGLVQAGGSLRLSCAASGITFLAYAMGWYRQAPGKERELVAGISKSGGNTYYADSVKGRFTISRDNAKNTVYLQMNSLKPEDTAVYYCAARYRLTYFDANYRYGYWGQGTQVTVSS

>  <Assay Result>
high polyreactivity

$$$$
>  <Sequence Input>
QFQLVESVRGLFQAGGSLRLSCAASGSIFHPYGMGWYREDPVKERELVAAISSSGGDTYYADSVKGRFTISRDNAKNTVYLQMNSLKPEDTAVYYCATDHLDSYSVPGIGKHDYWGQGTQVTVSS

>  <Assay Result>
low polyreactivity

$$$$

Next sequence, polyreactivity (PSR sort gate) to be filled in.
Give the measured polyreactivity (PSR sort gate) of QVQLVESGGGLVQAGGSLRLSCAASGSTFDTNAMGWYRQAPGKDRELVAAITSGGNTYADSVKGRFTISRDNAKNTVYLQMNSLKPEDTAVYYCAAEDVYTGWYDYWGQGTQVTVSS .
low polyreactivity

* * *

- Test Protocol: yeast display, Sf9 membrane polyspecificity reagent, FACS + sequencing; frameworks hold sequencing errors
Measure Name: polyreactivity (PSR sort gate)

>  <Sequence Input>
QVQLVESGGGLVQAGGSLRLSCAASGNIIRKYAMGWYRPAPGKERELVAAITASGGRTFYADSVKGRFTISRDNAKNTVDLQMNSLKPEDTAVYYCATRDSPRTKNGYYYWGQGTQVTVSS

>  <Measure Name>
polyreactivity (PSR sort gate)

>  <Assay Result>
high polyreactivity

$$$$
>  <Sequence Input>
QVQLVESGGGLVQAGGSLRLSCAASGFISQFYAMGWYRQAPGKERELVAAINWRGDSTYYADSVKGRFTISRDNAKNTVYLQMNSLKPEVTAVYYCAAENWSGYDYWGQGTQVTVSS

>  <Measure Name>
polyreactivity (PSR sort gate)

>  <Assay Result>
high polyreactivity

$$$$
>  <Sequence Input>
QVQLVESGGGLVQAGGSLRLSCASSGSTFFLNAMGWYRQAPGKEREFVAAISYTSTSTYYADSVKGRFTISRDNAKNTVYLQMNSLKPEDTAVYYCAVDAAGWYYTVETGDYAEDYWGQGTQVTVSS

>  <Measure Name>
polyreactivity (PSR sort gate)

>  <Assay Result>
low polyreactivity

$$$$
>  <Sequence Input>
QVQLVESAGGLVQAGGSLRLSCAASGSTFVWYAMGGYRQAPGKERELVDAINFGGTTYYADSVKGRFRISRYNAKNTVYLQLNSLKPEDTAVYYCATEYDYGSWFPDGWGIFDYWGQGTQVTVSS

>  <Measure Name>
polyreactivity (PSR sort gate)

>  <Assay Result>
low polyreactivity

$$$$

polyreactivity (PSR sort gate) lookup needed for QVQLVESGGGLVQAGGSLRLSCAASGSIFRGYAMGWYIQAPGKERELVAAITSRGGSTYYADSVKGRFTISRDNAKNTVYLQMNSLKPEDTEVYYCNKRVYYPWGQGTQVTVSS , thanks.
high polyreactivity

* * *

- Test Protocol: yeast display, Sf9 membrane polyspecificity reagent, FACS + sequencing; frameworks hold sequencing errors
Measure Name: polyreactivity (PSR sort gate)

Worked examples follow.
>  <Sequence Input>
QVQLVESGGGLVQAGGSLRLSCAASGIIFGYYAMGWYRQAPGKERELVAAISGNGGSTYYADSVKGRFTLSRDNAKITVYLQMNSLKPEDTAVYYCAARRGYRYGPRYDYWGQGTQVTVSS

>  <Measure Name>
polyreactivity (PSR sort gate)

>  <Assay Result>
high polyreactivity

$$$$
>  <Sequence Input>
QVQLVESGGGLVQAGGSLRLSCPASGSTQHYYVKAWYRQAQGKERELVAAITWSGVSTYYADSVKGRFTISRDNAKNTVYLQMNSLKPEDTAVYYCAKRIFTSARLNYWGKGTQVTVSS

>  <Measure Name>
polyreactivity (PSR sort gate)

>  <Assay Result>
high polyreactivity

$$$$
>  <Sequence Input>
QVQLVESGGGLVQGGGSLRLSCAASGFIFSRYAMGWYRPAPGKERELVAAISRTGSTNYADSVKGRFTISRDNAKNTVYLQMNSLNPEDTAVYYCNARYITFNGYGYGYWEQGTQVTVSS

>  <Measure Name>
polyreactivity (PSR sort gate)

>  <Assay Result>
high polyreactivity

$$$$
>  <Sequence Input>
QVQLVESGGGLVQAGGSLRLSCAASGFIFYGYTMGWYRQAPGKERELVAAITRGGSTYYADSVKGRFTISRDNAKNTVYLQMNSLKPEDTAVYYCAALTWDGMDYWGQGTQVTVSS

>  <Measure Name>
polyreactivity (PSR sort gate)

>  <Assay Result>
high polyreactivity

$$$$
>  <Sequence Input>
QVQLVESGGGLVQAGGSLRLSCAASGSIFRGNAMGWYRQAPGKERELVARITWSGGRTYYADSVKGRFTISRDNAKNTVYLQLNSLKPEDTAVYYCAAQYYLYRRGYMWKYDYWGQGTQVTVSS

>  <Measure Name>
polyreactivity (PSR sort gate)

>  <Assay Result>
high polyreactivity

$$$$

Fill in: polyreactivity (PSR sort gate) of QVQLVESGGGLVQAGGSLRLSCAASGSIFGSYAMGWYRQGAGKERELVAGITYDGGSTYYADSVKGRFTISRDNAKNTVYLQMNSLKPEDTAVYYCAAVDIRLEWDFWFQPTYEYWGQGTQVTVSS is ___
low polyreactivity
